Where do the numbers come from? From the supplement of paper PMC9170038.

Tested on: MS2 coat protein
Assay: apparent KD of MS2 coat protein; designed switch direction (-1 OFF switch, 1 ON switch): -1; higher = weaker reporter binding
Conditions: input ligand: none
Observed Property: apparent KD of MS2 coat protein (µM)
Please state the figure in µM; there is no need to write the unit.

Look up apparent KD of MS2 coat protein: UUUAGUUCAGGAUAUGUAGAUUUUAACAUGAGGAUCACCCAUGUAGAUCCUGAAUUAACUACAGAAGGGAGCAUUU [Mod of Brourd 16 - Jieux - Exclusion 5] (Eterna round: R97, puzzle: Exclusion 5)
0.0184

State the recorded apparent KD of MS2 coat protein for this entry: ACAUGAGGAUCACCCAUGUGAAAGAAAUGGCUGACUUUGAGCUAGGAUAUUUGUGCAUAUCAAACAAAGAAGGAGCAUUACUGG [Deportation 99 - Jieux - Exclusion NG 3] (Eterna round: R96, puzzle: Exclusion NG 3)
0.0206

Which apparent KD of MS2 coat protein value belongs to GGCAGACAUGAGGAUCACCCAUGUGAGGAUAUGGUGCGAUCGUCGAUAGACGAUAGCACCAGAAGGCACAUGCC [Mat - Exclusion 1 - Eli Mod - D4] (Eterna round: R97, puzzle: Exclusion 1) ?
0.0345

Reported apparent KD of MS2 coat protein, sequence GAUCGACAUGAGGAUCACCCAUGUCAGGAUAUCUACAUUGAAGCUGCGGCUUCAAUGUAGAGAAGGGAUAUAAU [E1/16-B1] (Eterna round: R97, puzzle: Exclusion 1) : ____
0.0272

Name the recorded apparent KD of MS2 coat protein for GAUCAACAUGAGGAUCACCCAUGUUAGGAUAUGUCCACGUGGCAUAGGACCACGUGUGGCAGAAGGAGCGUUAA [Eternabot (L2) Solution 52] (Eterna round: R97, puzzle: Exclusion 1) .
0.0374

Fill in the blank: the reported apparent KD of MS2 coat protein of GUUGUGUAAGGAUAUGCCUGGCCGUGAGGCCAGAUUGAAUAGCAGAAGGUACAUGAGGAUCACCCAUGUACGGG [salish99_ex4_4_001] (Eterna round: R97, puzzle: Exclusion 4) is ____.
0.0227

Please report the recorded apparent KD of MS2 coat protein for UGUCAAGCAGGAUAUGCACGUAAUAACAUGAGGAUCACCCAUGUGACCGAUUUAUAUUCUGCAGAAGGGCUUGUUU [LRO-Excl5-19-mod of Erxesoan mod by Eli Fisker] (Eterna round: R97, puzzle: Exclusion 5) .
0.0267

Any idea what apparent KD of MS2 coat protein was measured for GGACCUCCUGAGGAUAUUGUAUCACCCGACUGAUAAGAAGGCAGAACAUGAGGAUCACCCAUGUGGGUACUCGG [Bingo-Bango-14] (Eterna round: R97, puzzle: Exclusion 6) ?
0.0384

State the recorded apparent KD of MS2 coat protein for this entry: UACAUGAGGAUCACCCAUGUUUUGUCGUGUAUGGUAUUUAUCUAGGAUAUCAAUUUAGUUAUGUAUGAGAAGGAGAAUAUUAAU [JMF's solution 78] (Eterna round: R96, puzzle: Exclusion NG 3)
0.0464
